read-out: Interleukin-8 (IL8), CXCL8 (gene 3576); experiment: BSK_CASM3C_IL8: BioMAP Diversity Plus: CASM3C Assay for Interleukin-8 (IL8) Biomarker Activity (AID 2283042); details: primary human coronary artery smooth muscle cells; actives raise or lower the signal;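 note: IL-8 protein level quantified by ELISA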
Activity calls are given as the source filed them. Rule for the calls: active = hit-call score of the fitted dose curve at least 0.9, where 1 is the maximum; inactive = score below 0.9.
Outcomes: class 1 (active), class 0 (inactive)

[[record]]
compound = "COC(=O)CSc1cc(N=c2sc(=O)n3n2CCCC3)c(F)cc1Cl"
class_assignment = "class 0"

[[record]]
compound = "CCCCOCCOCCOCc1cc2c(cc1CCC)OCO2"
class_assignment = "class 0"

[[record]]
compound = "CCN(CC)C(=O)c1cccc(C)c1"
class_assignment = "class 0"

[[record]]
compound = "CC(=O)S[C@@H]1CC2=CC(=O)CC[C@]2(C)[C@H]2CC[C@@]3(C)[C@@H](CC[C@@]34CCC(=O)O4)[C@H]12"
class_assignment = "class 1"

[[record]]
compound = "Oc1ccc(C(c2ccc(O)cc2)C(Cl)(Cl)Cl)cc1"
class_assignment = "class 0"

[[record]]
compound = "CCCCC(CC)CN1C(=O)C2C3C=CC(C3)C2C1=O (stereo not given)"
class_assignment = "class 0"

[[record]]
compound = "N[C@@H](Cc1cc(I)c(Oc2ccc(O)c(I)c2)c(I)c1)C(=O)O"
class_assignment = "class 0"

[[record]]
compound = "CC(C)(C)[C@@H](O)[C@@H](Cc1ccc(Cl)cc1)n1cncn1"
class_assignment = "class 0"

[[record]]
compound = "CCC(O)=C1C(=O)CC(C(=O)O)CC1=O (stereo not given)"
class_assignment = "class 0"

[[record]]
compound = "Cc1nn(C)c(Oc2ccccc2)c1C=NOCc1ccc(C(=O)OC(C)(C)C)cc1"
class_assignment = "class 0"


----------
read-out: CD69, CD69 (gene 969); assay: BSK_SAg_CD69: BioMAP Diversity Plus: SAg Assay for CD69 Biomarker Activity (AID 2283089); details: primary human HUVEC with PBMC; actives raise or lower the signal
Activity calls are given as the source filed them. How the source made its calls: active means hit-call score of the fitted dose curve at least 0.9, where 1 is the maximum; inactive means score below 0.9.
Outcomes: active, inactive

[[record]]
compound = "COc1c(Cl)ccc(Cl)c1C(=O)O"
class_assignment = "inactive"

[[record]]
compound = "CCOC(=O)c1ccc(O)cc1"
class_assignment = "inactive"

[[record]]
compound = "CC(C)(c1ccc(O)cc1)c1ccc(O)cc1"
class_assignment = "inactive"

[[record]]
compound = "CCOC(=O)C(C)Oc1ccc(Oc2cnc3cc(Cl)ccc3n2)cc1 (configuration not stated)"
class_assignment = "inactive"

[[record]]
compound = "c1ccc2[nH]c(-c3cscn3)nc2c1"
class_assignment = "inactive"

[[record]]
compound = "CCCOC(=O)NCCCN(C)C"
class_assignment = "inactive"

[[record]]
compound = "Oc1ccc(C(c2ccc(O)cc2)C(Cl)(Cl)Cl)cc1"
class_assignment = "active"


----------
read-out: C-C motif chemokine 2 (Homo sapiens) (UniProt P13500); assay: BSK_KF3CT_MCP1: BioMAP Diversity Plus: KF3CT Assay for Monocyte Chemoattractant Protein 1 (MCP1/CCL2) Biomarker Activity (AID 2283073); conditions: primary human keratinocytes with fibroblasts; actives raise or lower the signal
Activity calls are given as the source filed them. The calls were made as follows: active = hit-call score of the fitted dose curve at least 0.9, where 1 is the maximum; inactive = score below 0.9.
EXPERIMENTAL_ENDPOINT: AC50

[[record]]
entry_smiles = "CCCOC(=O)c1ccc(C(=O)OCCC)nc1"
recorded_value = "inactive"

[[record]]
entry_smiles = "CC(C)(c1ccc(O)cc1)c1ccc(O)cc1"
recorded_value = "inactive"

[[record]]
entry_smiles = "C[C@]12C[C@H](O)[C@H]3[C@@H](CCC4=CC(=O)CC[C@@]43C)[C@@H]1CC[C@@H]2C(=O)CO"
recorded_value = "inactive"

[[record]]
entry_smiles = "COC(=O)c1ccccc1S(=O)(=O)NC(=O)Nc1nc(OC(F)F)cc(OC(F)F)n1"
recorded_value = "inactive"

[[record]]
entry_smiles = "CCCN(CCC)c1c([N+](=O)[O-])cc(C(F)(F)F)c(N)c1[N+](=O)[O-]"
recorded_value = "30.5 µM (active)"

